The listing below reports IC50 for compounds tested on FXa (Homo sapiens).
Sequence (P00742 235-488 limits assumed): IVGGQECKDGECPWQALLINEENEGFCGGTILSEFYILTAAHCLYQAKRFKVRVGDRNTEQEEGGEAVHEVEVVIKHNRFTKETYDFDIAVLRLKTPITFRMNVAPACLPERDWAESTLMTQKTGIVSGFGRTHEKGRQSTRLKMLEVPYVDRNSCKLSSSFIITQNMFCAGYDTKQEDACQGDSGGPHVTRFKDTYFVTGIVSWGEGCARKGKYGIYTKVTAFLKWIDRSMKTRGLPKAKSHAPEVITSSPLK
Sequence (P00742 41-179 partner limits assumed): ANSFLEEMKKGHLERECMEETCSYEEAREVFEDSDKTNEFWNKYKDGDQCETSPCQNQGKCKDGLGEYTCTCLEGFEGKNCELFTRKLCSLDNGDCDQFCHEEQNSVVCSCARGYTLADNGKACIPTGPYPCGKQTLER

Consider the reported IC50 for these compounds:
1. Cc1cc(CNC(=O)c2nn(-c3cccc(Cl)c3)c3c2CCN(c2ccc4c(c2)C(=O)N(C(C)C)CCO4)C3=O)nn1C [Example 1320] ... > 40 µM
2. Cc1ccc(-n2nc(C(=O)NCc3cnccc3C)c3c2C(=O)N(c2ccc4c(c2)CN(CCO)CC4)CC3)cc1Cl [Example 2007] ... > 40 µM
3. Cc1ccncc1COCc1nn(-c2cccc(Cl)c2)c2c1CCN(c1ccc3c(c1)C(=O)N(C)CC3)C2=O [Example 1356] ... 3 to 10 µM
4. Cc1cc(C)c(CNC(=O)c2nn(-c3cccc(Cl)c3)c3c2CCN(c2ccc4c(c2)CN(CCO)CC4)C3=O)cn1 [Example 1128] ... 10 to 40 µM

# IC50 (compound: CN1CCc2ccc(N3CCc4c(C(=O)N[C@@H]5CCOC5)nn(-c5cccc(Cl)c5)c4C3=O)cc2C1=O [Example 1338] ) is > 40 µM

###

The listing below reports IC50 for molecules tested on Human Factor XIIa (hFXIIa) (Homo sapiens).

Consider the reported IC50 for these molecules:
1. CCOC(=O)c1nn(-c2cccc(Cl)c2)c2c1CCN(c1ccc3c(c1)CN(C)CC3)C2=O [Example 1013] ... 100 to 300 nM
2. CN1CCc2ccc(N3CCc4c(C(=O)NC56CC(O)(C5)C6)nn(-c5cccc(Cl)c5)c4C3=O)cc2C1 [Example 1437] ... 100 to 300 nM
3. CCN1Cc2cc(N3CCc4c(C(=O)NCc5cnccc5C)nn(-c5cccc(Cl)c5)c4C3=O)ccc2[C@@H](C)C1 [Example 1158] ... 10 to 100 nM
4. Cc1cc(CNC(=O)c2nn(-c3cccc(Cl)c3)c3c2CCN(c2ccc4c(c2)C(=O)N(C)CC(=O)N4C)C3=O)nn1C [Example 1372] ... 300 to 1000 nM

# IC50 (molecule: Cn1ccc(CNC(=O)c2nn(-c3cccc(Cl)c3)c3c2CCN(c2ccc4c(c2)CN(CCO)CC4)C3=O)n1 [Example 1132] ) is 10 to 100 nM

# IC50 (molecule: CCOC(=O)c1nn(-c2cccc(C)n2)c2c1CCN(c1ccc3c(c1)C(=O)N(C)CC3)C2=O [Example 2023] ) is 300 to 1000 nM

###

tested-on: Human Factor XIIa (hFXIIa) (Homo sapiens)
Sequence (P00748 373-615 limits assumed): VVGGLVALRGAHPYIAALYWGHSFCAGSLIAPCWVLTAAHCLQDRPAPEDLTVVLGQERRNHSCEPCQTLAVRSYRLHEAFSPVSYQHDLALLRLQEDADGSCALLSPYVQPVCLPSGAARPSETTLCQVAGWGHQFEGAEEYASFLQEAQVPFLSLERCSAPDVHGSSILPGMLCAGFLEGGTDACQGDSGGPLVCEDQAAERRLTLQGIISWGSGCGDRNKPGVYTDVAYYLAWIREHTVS
Sequence (P00748 20-372 partner limits assumed): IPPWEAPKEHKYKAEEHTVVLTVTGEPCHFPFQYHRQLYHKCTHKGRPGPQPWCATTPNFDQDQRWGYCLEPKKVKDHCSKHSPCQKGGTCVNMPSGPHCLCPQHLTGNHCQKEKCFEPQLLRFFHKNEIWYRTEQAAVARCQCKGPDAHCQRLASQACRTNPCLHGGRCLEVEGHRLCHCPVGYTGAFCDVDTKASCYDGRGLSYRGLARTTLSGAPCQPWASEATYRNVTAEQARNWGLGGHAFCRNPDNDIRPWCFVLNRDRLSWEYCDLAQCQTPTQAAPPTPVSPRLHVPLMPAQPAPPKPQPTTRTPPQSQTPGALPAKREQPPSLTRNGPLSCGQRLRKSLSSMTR
Here the recorded IC50 is given for each entry.

# IC50 (compound: Cc1ccncc1CNC(=O)c1nn(-c2cccc(Cl)c2)c2c1CCN(c1ccc3c(c1)C(=O)N(C)CC3)C2=O [Example 1159] ) is 0.01 to 0.1 µM

# IC50 (compound: O=C(NCC1CC1)c1nn(-c2cccc(Cl)c2)c2c1CCN(c1ccc3c(c1)C(=O)N(CCO)CC3)C2=O [Example 1216] ) is 0.1 to 0.3 µM

# IC50 (compound: Cc1cccnc1CNC(=O)c1nn(-c2cccc(Cl)c2)c2c1CCN(c1ccc3c(c1)CN(CCO)CC3)C2=O [Example 1136] ) is 0.01 to 0.1 µM

# IC50 (compound: CCNC(=O)c1nn(-c2cccc(Cl)c2)c2c1CCN(c1cccc(N3C(=O)C[C@H]4C[C@H]43)c1)C2=O (single isomer, unassigned) [Example 1407] ) is 10 to 40 µM

# IC50 (compound: CCNC(=O)c1nn(-c2cccc(Cl)c2)c2c1CCN(c1cccc(N3CCCS3(=O)=O)c1)C2=O [Example 1366] ) is 3 to 10 µM
